These data points were gathered from paper PMC2720046.

Biological target: T1, TSG101 154-166 (Homo sapiens, UniProt Q99816)
T1 chain: QATGPPNTSYMPG
Experiment: ITC
MEASURED_METRIC: Kd

The binder identified as CEP55 160-217 (protein) FNSSINNIHEMEIQLKDALEKNQQWLVYDQQREVYVKGLLAKIFELEKKTETAAHSLP registered its Kd at ~1 µM
